Experimental protocol: in vitro
Conditions used: human, hepg2 cells
Endpoint name: CC50 at 72 h

Nc1ncnc2c1c(F)cn2[C@@H]1O[C@](F)(CO)[C@@H](O)[C@H]1O: < 1 µM
OC[C@@]1(F)O[C@@H](n2ccc3cncnc32)[C@H](O)[C@@H]1O: 1 to 10 µM
OC[C@@]1(F)O[C@@H](n2cc(Br)c3cncnc32)[C@H](O)[C@@H]1O: < 1 µM
N#C[C@@]1(c2cnc3c(N)ncnn23)O[C@](F)(CO)[C@@H](O)[C@H]1O: > 99 µM

Entry under review: "CCOc1nc(N)nc2c1ncn2[C@@H]1O[C@](F)(CO)[C@@H](O)[C@@]1(C)Cl" . Reported CC50 at 72 h?
10 to 99 µM

Entry under review: "Nc1ncnc2c1ccn2[C@@H]1O[C@](F)(CO)[C@@H](O)[C@]1(F)Cl" . Reported CC50 at 72 h?
> 99 µM

Entry under review: "COc1ncnc2c1ccn2[C@@H]1O[C@](F)(CO)[C@@H](O)[C@H]1O" . Reported CC50 at 72 h?
10 to 99 µM

Entry under review: "O=c1[nH]cnc2c1ccn2[C@@H]1O[C@](F)(CO)[C@@H](O)[C@H]1O" . Reported CC50 at 72 h?
> 99 µM

Where these numbers come from: patent US20260325561A1
